The compounds listed here are annotated with their GI50.
test system: DU-145; assay: NCI tumour cell line growth inhibition, 48 h
Calls of active or inactive are those of the source. No stated cut-off is given here; in the data, active = GI50 up to about 1.1 µM and inactive = higher.

- COc1ccc2nc3cc([N+](=O)[O-])ccc3c(NNc3ccc(Cl)cc3)c2c1: 38.9 µM (inactive)
- O=C1/C(=C\c2cccc(Oc3ccccc3)c2)SC(c2ccccc2)N1c1cccc(Cl)c1 (configuration not stated): > 100 µM (inactive)

What measured GI50 goes with `COC(=O)NN=C(c1ccc(Cl)cc1)c1ccc(Cl)cc1` ?
80.7 µM (inactive)

What would you report for `CCNC(=S)/N=c1\sc(NCC)nc2sc3c(c12)CCN(N1CCc2c(sc4nc(NCC)s/c(=N\C(=S)NCC)c24)C1)C3` ?
77.8 µM (inactive)

---

tested on: MDA-MB-435; experiment: NCI tumour cell line growth inhibition, 48 h
Active and inactive are the calls of the source. Rule as the data show it: active = GI50 up to about 1.1 µM and inactive = higher.
parameter: GI50

- CC(=O)Oc1ccc(-c2cc3ccccc3oc2=O)cc1OC(C)=O: 27.1 µM (inactive)
- O=C(CN(c1ccc(S(=O)(=O)O)cc1)c1ccc(S(=O)(=O)O)cc1)Nn1cnc2ccc(S(=O)(=O)N(c3ccc(S(=O)(=O)O)cc3)c3ccc(S(=O)(=O)O)cc3)cc2c1=O: > 100 µM (inactive)
- COc1cc(S(=O)(=O)Nc2ccc(-c3csc(N4C(=O)C(Cl)C4c4cccc(Oc5ccccc5)c4)n3)cc2)ccc1Cl (configuration not stated): 20.3 µM (inactive)
- C=C(C)[C@@]1(O[Si](C)(C)C)CCCC[C@@H]1CC(Sc1ccccc1)Sc1ccccc1: 15.6 µM (inactive)

What measured GI50 goes with COC1(CC[C@@H](C)COC2OC(CO)C(O)C(O)C2O)O[C@H]2C[C@H]3[C@@H]4CC=C5C[C@@H](OC6OC(CO)C(O)C(OC7OC(CO)C(O)C(O)C7O)C6OC6OC(C)C(O)C(O)C6O)CC[C@]5(C)[C@H]4CC[C@]3(C)[C@H]2[C@@H]1C (some centres not stated) ?
2.77 µM (inactive)

What would you report for `Cc1ncc([N+](=O)[O-])n1CCNC(=O)CCCn1cnc([N+](=O)[O-])n1` ?
> 100 µM (inactive)

What would you report for `COc1ccc(-c2cc(-c3cc(F)c(Cl)cc3Cl)[nH]n2)cc1OC` ?
46.2 µM (inactive)

---

system: SK-MEL-5; test: NCI tumour cell line growth inhibition, 48 h
Activity calls are given as the source filed them. Cut-off read from the data, not from the text of the source: active = GI50 up to about 1.1 µM and inactive = higher.
parameter: GI50

• COC(=O)c1cc2c(c(C(=O)OC)c1O)C(=O)C=CC2=O = 37.2 µM (inactive)
• CC1=C(C(=O)CC(=O)C(=O)NC2C3CC4CC(C3)CC2C4)Sc2ccccc2N1 (centres undefined) = > 83.6 µM (inactive)
• N#C/N=C1\NCCC(=O)N1CCc1c[nH]c2ccccc12 = > 100 µM (inactive)
• COC(=O)C(/C(=N/NC(=O)c1ccncc1)C(=O)Nc1ccccc1OC)c1nc2ccc(Cl)cc2nc1O (centres undefined) = > 100 µM (inactive)
• COc1ccc2c(c1)OCCCN(C)OC2c1ccccc1 (centres undefined) = > 100 µM (inactive)

What measured GI50 goes with CN(C)CC(O)CNC(=O)Nc1ccccc1 (centres undefined) ?
> 100 µM (inactive)

What would you report for C=C1C(C)C2C(Cc3ccccc3)NC(=O)C23C(OC(C)=O)/C=C/C(C)(O)CC(C)C/C=C/C3C1O (centres undefined) ?
3.05 µM (inactive)

What would you report for `CCOC(=O)Nc1ccc2c(c1)c(CCCCCCc1nc3ccccc3c3ccc(NC(=O)OCC)cc13)nc1ccccc12` ?
78.9 µM (inactive)

What would you report for `S=c1cc(S)c2c(=S)sc3nc4ccccn4c(=S)c3c2s1` ?
38.5 µM (inactive)

What would you report for `COc1ccc(-c2nnc(CCCCCCCCc3nnc(-c4ccc(OC)cc4)o3)o2)cc1` ?
> 100 µM (inactive)

---

The molecules listed here are annotated with their GI50.
test system: HCT-116; assay: NCI tumour cell line growth inhibition, 48 h
Activity calls are given as the source filed them. No stated cut-off is given here; in the data, active = GI50 up to about 1.1 µM and inactive = higher.

• CC(C)CC(NC=O)C(=O)NC(Cc1ccccc1)NC(=O)CNC(=O)C(C)NC(=O)C(N)Cc1ccc(O)cc1 (stereo not given) = > 100 µM (inactive)
• C[C@@H]1CC[C@H]2[C@H]1[C@H]1[C@@H](CC[C@]2(C)N=C=S)C1(C)C = 17.9 µM (inactive)
• Cc1cc2c([nH]c3ccccc32)c2c1OC(C)(C)C1C3CC(C)(C)Oc4c(C)cc5c6ccccc6n(c5c43)C21 (stereo not given) = > 100 µM (inactive)

What measured GI50 goes with N#CCN1c2ccccc2CCC1Cl (stereo not given) ?
> 10 µM (inactive)

What would you report for `CCCCN(CCCC)CC(=O)c1ccc2cc(Cl)c3ccccc3c2c1` ?
43.1 µM (inactive)

---

tested on: SF-295; assay: NCI tumour cell line growth inhibition, 48 h
The source made the active and inactive calls. Cut-off read from the data, not from the text of the source: active = GI50 up to about 1.1 µM and inactive = higher.
The molecules listed here are annotated with their GI50.

Answered examples (2):
• N#CCCC1(CCC#N)CCCCCCCCC(CCC#N)(CCC#N)C(O)C1O (stereo unspecified) = > 100 µM (inactive)
• Cc1ccc(/C=C2\CCCCCC2=O)cc1 = > 100 µM (inactive)

Request: GI50, test system SF-295, entry CC12CCC(C1)C(C)(C)C2OC(=O)c1ccccc1C(=O)O (stereo unspecified)
> 100 µM (inactive)

What would you report for `CN(C)CCCNc1ccnc2c([N+](=O)[O-])cccc12` ?
20.9 µM (inactive)

What would you report for `COC(=O)Cc1ccc(Oc2nc3ccccc3nc2-c2cccs2)cc1` ?
30.8 µM (inactive)

What would you report for `Cc1nn2c(=O)c([N+](=O)[O-])c(/C=C/c3ccccc3)nc2s1` ?
17.3 µM (inactive)

---

The compounds listed here are annotated with their GI50.
system: SK-OV-3; assay: NCI tumour cell line growth inhibition, 48 h
Activity calls are given as the source filed them. Cut-off read from the data, not from the text of the source: active = GI50 up to about 1.1 µM and inactive = higher.

Answered examples (10):
* COc1nncc2[nH]c(-c3ccccc3)cc12 | > 100 µM (inactive)
* O=c1cc2ccccc2nn1-c1ccccc1Cl | > 100 µM (inactive)
* O=[N+]([O-])c1ccc(OCc2nnc(CCCCCCCCc3nnc(COc4ccc([N+](=O)[O-])cc4)o3)o2)cc1 | 40.6 µM (inactive)
* CN1CN(c2ccccc2)C2(CCNCC2)C1=O | > 100 µM (inactive)
* CCCN1C(=O)C/C(=C\C(C)=O)Nc2ccccc21 | > 100 µM (inactive)
* COCc1cc2c(cc1/C(=C/[N+](=O)[O-])CS(=O)(=O)c1ccccc1)OCO2 | > 100 µM (inactive)
* CSc1nc(SC)c2c(C(N)=S)n[nH]c2n1 | 23.6 µM (inactive)
* CC1(O)CC(C(F)(F)F)(C(F)(F)F)OC1=O (stereo unspecified) | > 10 µM (inactive)
* CN1N=C(c2ccccc2)c2cc(Cl)ccc2N=C1N/N=C/c1ccc(N(C)C)cc1 | > 100 µM (inactive)
* COc1cc(/C=C2\CCC(C)/C(=C\c3cc(OC)c(OC)c(OC)c3)C2=O)cc(OC)c1OC (stereo unspecified) | 10.5 µM (inactive)

What measured GI50 goes with `COc1ccc2c(c1)-c1[nH]c3ccccc3c1CC2` ?
18.1 µM (inactive)

What would you report for `COc1ccc(/C=C2\CCc3cc(OC)c(OC)cc3C2=O)cc1` ?
> 10 µM (inactive)

What would you report for COC(=O)/N=[N+](\[O-])C(c1ccc(OC)cc1)C1CCCCC1 (stereo unspecified) ?
3.67 µM (inactive)

What would you report for CN(C)CC(O)CNC(=O)Nc1ccccc1 (stereo unspecified) ?
> 100 µM (inactive)

What would you report for CC(C)(C)c1cc2c(OC/C=C/c3ccccc3)c(c1)Cc1cc(C(C#N)(OC/C=C/c3ccccc3)OC/C=C/c3ccccc3)cc(c1OC/C=C\c1ccccc1)Cc1cc(C(C)(C)C)cc(c1OC/C=C/c1ccccc1)Cc1cc(C(C#N)(OC/C=C\c3ccccc3)OC/C=C/c3ccccc3)cc(c1OC/C=C\c1ccccc1)C2 (stereo unspecified) ?
> 100 µM (inactive)

---

The compounds listed here are annotated with their GI50.
tested on: NCI-H460; assay: NCI tumour cell line growth inhibition, 48 h
Activity calls are given as the source filed them. Cut-off read from the data, not from the text of the source: active = GI50 up to about 1.1 µM and inactive = higher.

Answered examples (5):
- CC1CC[P+](c2ccccc2)(c2ccccc2)c2c1ccc1ccccc21 (stereo unspecified): 2 µM (inactive)
- COc1cc2c(cc1O)CN1CCC23C=C[C@@H](O)CC13 (stereo partly specified): 62.8 µM (inactive)
- COc1cc(CCNC2=CC(=O)c3nc[nH]c3C2=O)ccc1O: 25.7 µM (inactive)
- O=c1c(Br)cc2c(-c3ccccc3)c3cc(Br)c(O)c(Br)c3oc-2c1Br: 77.4 µM (inactive)
- CCCCCCCCCCCCCC(=O)OC1C(O)C(CO)OC(OC)C1NC(=O)N(CCCl)N=O (stereo unspecified): 18.7 µM (inactive)

Request: GI50, test system NCI-H460, entry `Cc1ccc(S(=O)(=O)SC(C)(C)C)cc1`
> 100 µM (inactive)

What would you report for `Cc1cn([C@@H]2C[C@](C)(CO)N(C)O2)c(=O)[nH]c1=O` ?
> 100 µM (inactive)

What would you report for `Cn1ccnc1Cn1cc(-c2cccc(-c3cn[nH]c3)c2)cn1` ?
> 100 µM (inactive)

What would you report for Cc1ccc(NC(=O)OCC(COc2ccc(Cl)cc2)OC(=O)Nc2ccc(C)cc2)cc1 (stereo unspecified) ?
25.9 µM (inactive)

What would you report for `COc1cc(Nc2nc3ccccc3nc2C(C)C)cc(OC)c1OC` ?
> 100 µM (inactive)

What would you report for NCCOCC(N)C(=O)O (stereo unspecified) ?
> 100 µM (inactive)
